Numbers sourced from the EternaBench riboswitch data.

Tested on: MS2 coat protein
experiment.notes: apparent Kd, MS2 coat protein; higher = weaker binding; RNA-MaP array
stated.conditions: designed as: OFF switch for flavin mononucleotide; no ligand
Mark 1 (yes) for reported apparent Kd of 30 nM or greater; mark 0 (no) for anything smaller.

The examples below pair each entry with its known result.
[[record]]
query_sequence = "AACGUACAUGAGGAUCACCCAUGUGAGGAUAUGCCUAAAGAGUUCUAAGCAUCCAAGGGCAGAAGGCACAUGAA"
tested_target = "MS2 coat protein"
assigned_class = "1 (yes)"

[[record]]
query_sequence = "AGAUCCUAAGUAAGGAUAUACCUCGCACACAAGUCGUAGAAGGUACAUGAGGAUCACCCAUGUAGGAAAGUACU"
tested_target = "MS2 coat protein"
assigned_class = "0 (no)"

[[record]]
query_sequence = "GGUCCAAUAGGAUAUACAUGAGGAUCACCCAUGUAAUGGAAGCUCGGGUUUUGGUACUGUAGAAGGAUUGGGAC"
tested_target = "MS2 coat protein"
assigned_class = "0 (no)"

[[record]]
query_sequence = "UAUAAGGAAGGAUAUAGGCUGCAAAACAUGAGGAUCACCCAUGUGAACCGACGACGCCAACUAGAAGGUCCCUAUG"
tested_target = "MS2 coat protein"
assigned_class = "0 (no)"

[[record]]
query_sequence = "AUAAAGGAAGGAUAUACAUGAGGAUCACCCAUGUUGAAAUACAGAAAAGGAGAAACAAGUAGAAGGACCGAUGU"
tested_target = "MS2 coat protein"
assigned_class = "0 (no)"


Consider now this further sequence.
q: Quick check, apparent Kd >= 30 nM? `GACAAAAUGGUAGGAUAUGCUUGGUCUUGAUCAGCAGAAGGACCACAUGAGGAUCACCCAUGUGCAGUGAUUCUGGGAGCUCGC`
a: 1 (yes)

---

System: MS2 coat protein
experiment.notes: apparent Kd, MS2 coat protein; higher = weaker binding; RNA-MaP array; FMN 200 µM where present
stated.conditions: ligand present: flavin mononucleotide; designed as: OFF switch for flavin mononucleotide
For each record, write down the corresponding apparent Kd.
Numbers only, in nM.

[[record]]
query_sequence = "UCCCAGUAAGGAUAUCAGGCAAGUCUCCGGGAGCUUAGUCGUGAGAAGGUACAUGAGGAUCACCCAUGUGAUUG"
units = "nM"
readout_number = 211

[[record]]
query_sequence = "GAGCGGGAAACAUGAGGAUCACCCAUGUGAUGAAUCCUCACAUAGGAUAUCCACACGAGAAGUGUGGAGAAGGAUGACCCGGUC"
units = "nM"
readout_number = 1700

[[record]]
query_sequence = "AGUACAUCAGGAUAUACAUGGAAGAUCAUUAUGACCCAUCUACAUGAGGAUCACCCAUGUAGAAGGGAUGUACA"
units = "nM"
readout_number = 16.9

[[record]]
query_sequence = "GUCAGCUCGUGAGGAUAUACAACACUGCUUCGGCAGUGUAUUAAGAUCACAUGAGGAUCACCCAUGUAGAAGGCACGAGAUGAU"
units = "nM"
readout_number = 237

[[record]]
query_sequence = "CAUAUAGUAGUGAGGAUAUGCGAAUAUAUAAUUAAGUAGAAGGCACAUGAGGAUCACCCAUGUAUAUUGUAAAG"
units = "nM"
readout_number = 20.6

[[record]]
query_sequence = "GCAUCCAAAGUGAGGAUAUACCUCUGGAUACAUAGGUAGAAGGCACAUGAGGAUCACCCAUGUUCCUAGGAUGC"
units = "nM"
readout_number = 43.1

[[record]]
query_sequence = "CUGGGAUCAGUAGGAUAUGCCGGACAUGAGGAUCACCCAUGUAAGGCGUGCUUCCCUCGCGUGCGGCAGAAGGGCUGCAUCACA"
units = "nM"
readout_number = 35.4

[[record]]
query_sequence = "GAUGAGGUAGGAUAUACGAGAAGAUAGGGUAGAUAGAGAACACAUGAGGAUCACCCAUGUAGAAGGACCAGUAG"
units = "nM"
readout_number = 55.7


Hi! Can you tell me apparent Kd for each of these sequences?
1. UGAUCUUGUGUCAGGAUAUGCUGGUCUCCUCUCCAGCAGAAGGGACAUGAGGAUCACCCAUGUUCUCUCUUUUU
2. AAAAAGUGAGGAUAUGCUGCUCGUCACUUGCGUGAUGAGUAGCAGAAGGCACAUGAGGAUCACCCAUGUAAAGA
3. AAAAAACAUGAGGAUCACCCAUGUGAGGAUAUGACUUAAAUAAAGAAAGAAGAAAUAGUCAGAAGGCACAAAUA
4. AAGUAGGUAGGAUAUACAUGGAUAUACAUUCAUGUGGACCUACAUGAGGAUCACCCAUGUAGAAGGACCUACUA

a:
1: 28.6; 2: 49.7; 3: 70.4; 4: 79.1

Hi! Can you tell me apparent Kd for each of these sequences?
1. UCGUGUUAUACAGGAUAUGUUUAGGUAUAAUCAUUCAGUUAUUAAUUAAUGACAGAAGGGUAAACAUGAGGAUCACCCAUGUCA
2. CCCUCAACAUGAGGAUCACCCAUGUAGGAUAUCGCUAUUGUAAUCAUGAAACAUGAUUACAAUAGCGAGAAGGACAUAUGUAAA

a:
[121, 140]

q: I am curious: what apparent Kd value has been reported for `AGGAGAAAUGUAGGAUAUGGGCGGGUAUAUGGGCAAAGCGCAUAUACCCGCCCAGAAGGACAUGAGGAUCACCCAUGUUUCCCU` ?
a: 13.3
